Readings of molar heat capacity at constant pressure for the listed compounds
# assay-overview: molar heat capacity at constant pressure
# particulars: 393.15 K; 101.33 kPa; Liquid; Large sample (1 g) DSC
measured-attribute: molar heat capacity at constant pressure (J/K/mol)

{"compound": "CCCCCCCCCCCCCCBr [1-tetradecyl bromide]", "uom": "J/K/mol", "reported-value": 512.37}
{"compound": "CCCCCCCCCCCBr", "uom": "J/K/mol", "reported-value": 420.57}
{"compound": "CCCCCCCCCCCCBr", "uom": "J/K/mol", "reported-value": 457.99}
{"compound": "CCCCCCCBr", "uom": "J/K/mol", "reported-value": 284.32}
{"compound": "CCCCCCCCCCBr", "uom": "J/K/mol", "reported-value": 381.8}
{"compound": "CCCCCCCCBr", "uom": "J/K/mol", "reported-value": 320.64}
{"compound": "CCCCCCCCCBr", "uom": "J/K/mol", "reported-value": 351.31}
{"compound": "CCCCCCBr", "uom": "J/K/mol", "reported-value": 250.45}

###

# assay-overview: molar heat capacity at constant pressure
# particulars: 418.15 K; 101.33 kPa; Liquid; Large sample (1 g) DSC

{"molecule": "CCCCCCCCCBr", "molar heat capacity at constant pressure [J/K/mol]": 362.62}
{"molecule": "CCCCCCBr", "molar heat capacity at constant pressure [J/K/mol]": 258.55}
{"molecule": "CCCCCCCCCCCCCCBr [1-tetradecyl bromide]", "molar heat capacity at constant pressure [J/K/mol]": 528.56}
{"molecule": "CCCCCCCBr", "molar heat capacity at constant pressure [J/K/mol]": 293.51}
{"molecule": "CCCCCCCCBr", "molar heat capacity at constant pressure [J/K/mol]": 333.41}
{"molecule": "CCCCCCCCCCCCBr", "molar heat capacity at constant pressure [J/K/mol]": 473.41}
{"molecule": "CCCCCCCCCCCBr", "molar heat capacity at constant pressure [J/K/mol]": 433.01}
{"molecule": "CCCCCCCCCCBr", "molar heat capacity at constant pressure [J/K/mol]": 394.27}

###

Listing of entries alongside the reported molar heat capacity at constant pressure.
# assay-overview: molar heat capacity at constant pressure
# particulars: 343.15 K; 101.33 kPa; Liquid; Large sample (1 g) DSC
measured-attribute: molar heat capacity at constant pressure (J/K/mol)

{"molecule": "CCCCCCCCCCBr", "reported-value": 356.83}
{"molecule": "CCCCCCCCCCCCCCBr [1-tetradecyl bromide]", "reported-value": 479.98}
{"molecule": "CCCCCCCCCBr", "reported-value": 328.67}
{"molecule": "CCCCCCCCCCCBr", "reported-value": 395.66}
{"molecule": "CCCCCCCCBr", "reported-value": 295.11}
{"molecule": "CCCCCCCCCCCCBr", "reported-value": 427.11}
{"molecule": "CCCCCCBr", "reported-value": 234.24}
{"molecule": "CCCCCCCBr", "reported-value": 265.94}

###

# assay-overview: molar heat capacity at constant pressure
# particulars: 348.15 K; 101.33 kPa; Liquid; Large sample (1 g) DSC
measured-attribute: molar heat capacity at constant pressure (J/K/mol)

{"compound": "CCCCCCCCCCBr [1-bromodecane]", "reported-value": 359.33}
{"compound": "CCCCCCCCCCCCCCBr [1-tetradecyl bromide]", "reported-value": 483.22}
{"compound": "CCCCCCCCBr [1-bromooctane]", "reported-value": 297.66}
{"compound": "CCCCCCCCCCCBr [1-bromoundecane]", "reported-value": 398.15}
{"compound": "CCCCCCCCCBr [1-bromononane]", "reported-value": 330.92}
{"compound": "CCCCCCCBr [1-bromoheptane]", "reported-value": 267.77}
{"compound": "CCCCCCCCCCCCBr [1-bromododecane]", "reported-value": 430.2}
{"compound": "CCCCCCBr [1-bromohexane]", "reported-value": 235.87}
